- procedureText: collision cross section of modified peptide (TIMS, N2, iRT-aligned); higher = larger / more extended gas-phase ion
- experimentalConditions: charge state: 2; modification: Nitro (Y)
± gives the standard deviation.

sequenceInput	collision cross section
DYSVTANSK [_DY(Nitro (Y))SVTANSK_]	331.98 ± 0.55 Å²
GVQYLNEIK [_GVQY(Nitro (Y))LNEIK_]	353.34 ± 0.19 Å²
LYDIDVAK [_LY(Nitro (Y))DIDVAK_]	344.32 ± 0.56 Å²
SEGFDTYR [_SEGFDTY(Nitro (Y))R_]	336.07 ± 0.95 Å²
YSTSGSSGLTTGK [_Y(Nitro (Y))STSGSSGLTTGK_]	371.62 ± 0.55 Å²
GPQNATDSYVHK [_GPQNATDSY(Nitro (Y))VHK_]	386.3 ± 0.94 Å²
YHEDIFGLTLR [_Y(Nitro (Y))HEDIFGLTLR_]	391.96 ± 0.8 Å²
LQNSYQPTNK [_LQNSY(Nitro (Y))QPTNK_]	362.69 ± 0.94 Å²
TSAYGPPTR [_TSAY(Nitro (Y))GPPTR_]	326.25 ± 1.1 Å²
VETFSGVYK [_VETFSGVY(Nitro (Y))K_]	348.3 ± 0.55 Å²
LGGDLGTYVINK [_LGGDLGTY(Nitro (Y))VINK_]	371.97 ± 0.72 Å²
AIEINPDSAQPYK [_AIEINPDSAQPY(Nitro (Y))K_]	401.15 ± 0.18 Å²
HGVYNPNK [_HGVY(Nitro (Y))NPNK_]	338.11 ± 3.3 Å²
AQSYAQQLGR [_AQSY(Nitro (Y))AQQLGR_]	354.17 ± 0.17 Å²
VVDLLAPYAK [_VVDLLAPY(Nitro (Y))AK_]	371.07 ± 0.55 Å²
LGPNDQYK [_LGPNDQY(Nitro (Y))K_]	332.94 ± 1.8 Å²
IGAEVYHHLK [_IGAEVY(Nitro (Y))HHLK_]	375.15 ± 0.55 Å²
AYDATHLVK [_AY(Nitro (Y))DATHLVK_]	358.23 ± 0.55 Å²
GNDISSGTVLSDYVGSGPPK [_GNDISSGTVLSDY(Nitro (Y))VGSGPPK_]	466.4 ± 0.42 Å²
AYGELPEHAK [_AY(Nitro (Y))GELPEHAK_]	361.5 ± 1.2 Å²
AQLSQYFDAVK [_AQLSQY(Nitro (Y))FDAVK_]	386.8 ± 0.8 Å²
YILIPASQQPK [_Y(Nitro (Y))ILIPASQQPK_]	382.12 ± 0.17 Å²
SYGIPYIETSAK [_SY(Nitro (Y))GIPYIETSAK_]	386.26 ± 0.17 Å²
SFEDIHQYR [_SFEDIHQY(Nitro (Y))R_]	368.15 ± 0.17 Å²
LAPEYEAAATR [_LAPEY(Nitro (Y))EAAATR_]	362.69 ± 1.2 Å²

###

- procedureText: collision cross section of unmodified peptide (TIMS, N2, iRT-aligned); higher = larger / more extended gas-phase ion
- experimentalConditions: charge state: 2
± gives the standard deviation.
Listed substances paired with reported collision cross section
property: collision cross section

1. GDYDLNAVR 340.54 ± 0.15 Å²
2. GPPGAKGNK 312.31 ± 1.7 Å²
3. LELAQYR 324.63 ± 0.15 Å²
4. ITASLCDLKSR 397.44 ± 4.9 Å²
5. LSEHATAPTR 353.05 ± 0.78 Å²
6. TLDEILQEKK 375.43 ± 1 Å²
7. PAVTAAPK 290.54 ± 0.15 Å²
8. ITESVAETAQTIKK 434.75 ± 1.5 Å²
9. FSPPSSSLQPGK 371.43 ± 0.67 Å²
10. RGPPGAK 308.91 ± 1.4 Å²
11. PLPVALQTRLAK 398.31 ± 0.59 Å²
12. PATSYVR 307.47 ± 0.15 Å²
13. VLPSITTEILK 373.13 ± 0.14 Å²
14. CSVLAAANPVYGR 385.24 ± 0.16 Å²
15. LQNSYQPTNK 358.91 ± 0.48 Å²
16. SLEEEGAAHSGKR 399.57 ± 1.8 Å²
17. LGGDLGTYVINK 369.28 ± 0.16 Å²
18. VRFHNPR 337.63 ± 0.7 Å²
19. GGPGAPGAPGPKGESGDYK 431.57 ± 1 Å²
20. VDIDAPDVSIEGPDAKLK 460.39 ± 2.9 Å²
21. YVHADAPTNK 347.85 ± 2.8 Å²
22. GHYTIGK 315.37 ± 1.9 Å²
23. EGFSIPVSADGFK 384.97 ± 0.14 Å²
24. SRGAIISQYYNR 400.77 ± 1.6 Å²
25. YTTNNSSEQR 353.04 ± 0.15 Å²
26. LDINTNTYTSQDLK 418.99 ± 0.69 Å²
27. DVNAAIAAIKTK 391.89 ± 2.3 Å²
28. VSFLSALEEYTK 392.46 ± 0.78 Å²
29. IDLPAENSNSETIIITGKR 488.02 Å²
30. AGPNASIISLKSDK 408.7 ± 1.4 Å²
31. ISPVEESEDVSNK 399.42 ± 0.14 Å²
32. SLYASSPGGVYATR 405.12 ± 0.66 Å²
33. HELQANCYEEVKDR 443.76 ± 2.4 Å²
34. GDTGLPGPQGIPGGVGSPGR 429.26 ± 1 Å²
35. VYVGNLGTGAGK 357.65 ± 0.15 Å²
36. GVPRGVHLGSQGLQR 424.25 Å²
37. GGPGAPGAPGPK 323.76 ± 0.58 Å²
38. TQDQISNIKYHEEFEK 459.39 Å²
39. IGNSYFKEEK 377.24 ± 0.91 Å²
40. PASGAGAGAGAGKR 378.29 ± 1.2 Å²
41. ASDTSSETVFGKR 399.16 ± 2.1 Å²

###

- procedureText: collision cross section of modified peptide (TIMS, N2, iRT-aligned); higher = larger / more extended gas-phase ion
- experimentalConditions: charge state: 2; modification: Crotonyl
Assign class by collision cross section: not lower than 400 Å² means fulfilled; lower than 400 Å² means not fulfilled.

sequenceInput	group
TTEETSKPK [_TTEETSK(Crotonyl)PK_]	not fulfilled
DFDTALKHYDK [_DFDTALK(Crotonyl)HYDK_]	fulfilled
IINEPTAAAIAYGLDKK [_IINEPTAAAIAYGLDK(Crotonyl)K_]	fulfilled
SGFGKFER [_SGFGK(Crotonyl)FER_]	not fulfilled
DASTLQSQKAEGTGDAK [_DASTLQSQK(Crotonyl)AEGTGDAK_]	fulfilled
ASEALLKQLK [_ASEALLK(Crotonyl)QLK_]	not fulfilled
VGVEVPDVNIEGPEGKLK [_VGVEVPDVNIEGPEGK(Crotonyl)LK_]	fulfilled
DDSFLGKLGGTLAR [_DDSFLGK(Crotonyl)LGGTLAR_]	fulfilled
GTVPDDAVEALADSLGKK [_GTVPDDAVEALADSLGK(Crotonyl)K_]	fulfilled
SPDEAYAIAKK [_SPDEAYAIAK(Crotonyl)K_]	not fulfilled
IQQELQTAKK [_IQQELQTAK(Crotonyl)K_]	not fulfilled
SLKLNTAEDAK [_SLK(Crotonyl)LNTAEDAK_]	not fulfilled
DSSPTTNSKLSALQR [_DSSPTTNSK(Crotonyl)LSALQR_]	fulfilled

###

Listed sequences paired with reported collision cross section
- procedureText: collision cross section of modified peptide (TIMS, N2, iRT-aligned); higher = larger / more extended gas-phase ion
- experimentalConditions: charge state: 2; modification: hydroxyisobutyryl

sequenceInput	collision cross section, Å²
DFDTALKHYDK [_DFDTALK(hydroxyisobutyryl)HYDK_]	409.01
LDEKENLSAK [_LDEK(hydroxyisobutyryl)ENLSAK_]	373.33
VPTTEKPTVTVNFR [_VPTTEK(hydroxyisobutyryl)PTVTVNFR_]	429.55
GTVPDDAVEALADSLGKK [_GTVPDDAVEALADSLGK(hydroxyisobutyryl)K_]	460.24
TPNLYIYSKK [_TPNLYIYSK(hydroxyisobutyryl)K_]	388.68

###

Listed sequences paired with reported collision cross section
- procedureText: collision cross section of modified peptide (TIMS, N2, iRT-aligned); higher = larger / more extended gas-phase ion
- experimentalConditions: charge state: 3; modification: Glutarylation

sequenceInput	valueUnits	collision cross section
SNEEGSEEKGPEVR [_SNEEGSEEK(Gluratylation)GPEVR_]	Å²	470.21
STGLELETPSLVPVKK [_STGLELETPSLVPVK(Gluratylation)K_]	Å²	527.31
AAQASDLEKIHLDEK [_AAQASDLEK(Gluratylation)IHLDEK_]	Å²	503.34

###

- procedureText: collision cross section of modified peptide (TIMS, N2, iRT-aligned); higher = larger / more extended gas-phase ion
- experimentalConditions: charge state: 3; modification: Butyryl
property: collision cross section (Å²)

sequenceInput	property	numericResult
TQAYQDQKPGTSGLR [_TQAYQDQK(Butyryl)PGTSGLR_]	collision cross section	479.17
ASDTSSETVFGKR [_ASDTSSETVFGK(Butyryl)R_]	collision cross section	479.86
LFVGGIKEDTEEHHLR [_LFVGGIK(Butyryl)EDTEEHHLR_]	collision cross section	545.89
SLGEPAAGEGSAKR [_SLGEPAAGEGSAK(Butyryl)R_]	collision cross section	487.74
DFDTALKHYDK [_DFDTALK(Butyryl)HYDK_]	collision cross section	465.65
SNEEGSEEKGPEVR [_SNEEGSEEK(Butyryl)GPEVR_]	collision cross section	490.17
DLSTVEALQNLKNLK [_DLSTVEALQNLK(Butyryl)NLK_]	collision cross section	550.2
FDDTNPEKEEAK [_FDDTNPEK(Butyryl)EEAK_]	collision cross section	440.77
TPNLYIYSKK [_TPNLYIYSK(Butyryl)K_]	collision cross section	439.93
DDSFLGKLGGTLAR [_DDSFLGK(Butyryl)LGGTLAR_]	collision cross section	492.3
VPTTEKPTVTVNFR [_VPTTEK(Butyryl)PTVTVNFR_]	collision cross section	508.36
STGLELETPSLVPVKK [_STGLELETPSLVPVK(Butyryl)K_]	collision cross section	522.48
SPPLPEHQKIPCNSAEPK [_SPPLPEHQK(Butyryl)IPCNSAEPK_]	collision cross section	542.36
DSSPTTNSKLSALQR [_DSSPTTNSK(Butyryl)LSALQR_]	collision cross section	499.02
DYSAPVNFISAGLKK [_DYSAPVNFISAGLK(Butyryl)K_]	collision cross section	532.64
VLDSGAPIKIPVGPETLGR [_VLDSGAPIK(Butyryl)IPVGPETLGR_]	collision cross section	512.04
FGTINIVHPKLGSYTK [_FGTINIVHPK(Butyryl)LGSYTK_]	collision cross section	553.18
LQAAYAGDKADDIQK [_LQAAYAGDK(Butyryl)ADDIQK_]	collision cross section	489.7
IINEPTAAAIAYGLDKK [_IINEPTAAAIAYGLDK(Butyryl)K_]	collision cross section	559.62
DESFLGKLGGTLAR [_DESFLGK(Butyryl)LGGTLAR_]	collision cross section	494.35
